# target_or_system: Cynomolgus monkey CTGF-Fc (cynomolgus monkey)
# Sequence (P29279 other isoform, or with tags, fused parts or gaps limits assumed): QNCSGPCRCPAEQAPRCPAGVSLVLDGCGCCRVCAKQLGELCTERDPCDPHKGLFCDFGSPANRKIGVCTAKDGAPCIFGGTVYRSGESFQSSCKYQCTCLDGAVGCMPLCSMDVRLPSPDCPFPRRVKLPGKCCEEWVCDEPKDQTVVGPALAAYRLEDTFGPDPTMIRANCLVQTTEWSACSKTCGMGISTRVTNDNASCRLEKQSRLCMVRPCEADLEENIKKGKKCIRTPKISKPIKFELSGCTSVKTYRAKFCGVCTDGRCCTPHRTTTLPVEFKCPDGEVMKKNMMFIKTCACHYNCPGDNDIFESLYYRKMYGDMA
# assay_explanation: ELISA, cyno-CTGF-mFc captured by anti-mFc
Reported EC50 values are given for each entry in this list.
Just the number please, in nM, no unit attached.

Reference set, count: 3
binder	numeric_result
Hu147-24wk (antibody, human IgG1, kappa, V domains shown) VH: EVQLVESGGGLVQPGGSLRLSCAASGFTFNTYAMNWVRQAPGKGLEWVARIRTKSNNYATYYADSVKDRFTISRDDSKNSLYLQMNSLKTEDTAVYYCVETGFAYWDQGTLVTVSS VL: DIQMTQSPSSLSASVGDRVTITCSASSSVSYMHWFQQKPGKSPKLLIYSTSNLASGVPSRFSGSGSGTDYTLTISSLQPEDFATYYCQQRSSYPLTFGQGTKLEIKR	0.08
Hu164-77wl (antibody, human IgG1, lambda, V domains shown) VH: EVQLQESGPGLVKPSQTLSLTCTVSGFSISTFGVHWIRQHPGKGLEWIGVIWRRGGTDYNAAFMSRVTISKDTSKNQVSLKLSSVTAADTAVYYCARDGGFDYWGQGTTVTVSS VL: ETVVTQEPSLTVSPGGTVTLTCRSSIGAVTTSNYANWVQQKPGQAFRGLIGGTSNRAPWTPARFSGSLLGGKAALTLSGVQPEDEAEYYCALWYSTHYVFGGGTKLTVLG	0.038
Hu147-11wk (antibody, human IgG1, kappa, V domains shown) VH: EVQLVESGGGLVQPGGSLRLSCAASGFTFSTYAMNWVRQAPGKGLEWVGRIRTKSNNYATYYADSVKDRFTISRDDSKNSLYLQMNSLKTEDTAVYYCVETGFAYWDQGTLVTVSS VL: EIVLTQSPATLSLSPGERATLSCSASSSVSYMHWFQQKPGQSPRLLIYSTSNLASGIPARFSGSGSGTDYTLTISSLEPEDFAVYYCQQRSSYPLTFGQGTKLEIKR	0.052

In the following, a different binder is considered.
-- ask What measured EC50 goes with Hu164-68wl (antibody, human IgG1, lambda, V domains shown) VH: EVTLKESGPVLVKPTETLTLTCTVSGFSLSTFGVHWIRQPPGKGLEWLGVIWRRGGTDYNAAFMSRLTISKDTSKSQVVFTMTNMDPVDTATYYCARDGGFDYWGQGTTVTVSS VL: ETVVTQEPSFSVSPGGTVTLTCRSSIGAVTTSNYANWVQQTPGQAFRGLIGGTSNRAPGVPDRFSGSILGNKAALTITGAQADDESDYYCALWYSTHYVFGGGTKLTVLG ?
-- reply 0.036

Source of measurements: patent US20230416352A1
